Listed compounds paired with reported BRET2, % of inhibition, STS
- experimental.system: rVDAC1-GFP2 / rVDAC1-Rluc in T-REx-293 cells (Rattus norvegicus, UniProt Q9Z2L0)
- Construct: The rVDAC1 gene was cloned into BamHI and HindIII sites of the BRET2 plasmids (N2 variants); expressed in transfected cells; host or cells: T-REx-293 cells stably expressing hVDAC1-shRNA (T-REx-pS10)
- Sequence (Q9Z2L0 with tags, fused parts or gaps limits assumed): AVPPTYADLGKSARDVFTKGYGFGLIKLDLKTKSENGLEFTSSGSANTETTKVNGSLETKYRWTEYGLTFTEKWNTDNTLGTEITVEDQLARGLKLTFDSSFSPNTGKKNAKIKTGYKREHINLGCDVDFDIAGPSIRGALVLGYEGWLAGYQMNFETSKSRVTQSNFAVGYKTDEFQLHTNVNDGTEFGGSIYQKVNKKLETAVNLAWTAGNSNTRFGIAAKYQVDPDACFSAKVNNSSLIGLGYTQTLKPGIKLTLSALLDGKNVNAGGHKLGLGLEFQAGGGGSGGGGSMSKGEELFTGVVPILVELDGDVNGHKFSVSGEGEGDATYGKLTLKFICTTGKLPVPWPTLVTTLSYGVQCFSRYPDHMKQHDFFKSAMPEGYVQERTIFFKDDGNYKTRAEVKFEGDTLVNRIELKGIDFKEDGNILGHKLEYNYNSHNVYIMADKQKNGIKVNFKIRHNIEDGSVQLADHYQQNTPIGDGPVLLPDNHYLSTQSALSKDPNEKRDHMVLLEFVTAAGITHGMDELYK
- assay.overview: BRET2 assay of VDAC1 oligomerization induced by apoptosis inducers (Method A)
- Format: cell-based
- assay.setup: test compound 10 μM, 1 h pre-incubation, STS 1 μM (3 h)
Answers without a unit are incomplete; give the number and then its unit.

Consider the worked cases shown below.
compound="CCOC(=O)Nc1ccc(C(=O)/C=C/c2ccccc2)cc1 [NSC 31703]" recorded_endpoint="BRET2, % of inhibition, STS" result=16.6%
compound="O=C(/C=C/c1ccccc1Cl)c1ccc(O)cc1 [NSC 13151]" recorded_endpoint="BRET2, % of inhibition, STS" result=0%

Return reported BRET2, % of inhibition, STS; argument: COc1ccc(C2OC3=C(Nc4cc(C)c(C)cc4N3)C2=O)cc1 (stereo not drawn) [NSC 372275]
28.5%

====

- experimental.system: rVDAC1-GFP2 / rVDAC1-Rluc in T-REx-293 cells (Rattus norvegicus)
- Construct: The rVDAC1 gene was cloned into BamHI and HindIII sites of the BRET2 plasmids (N2 variants); expressed in transfected cells; host or cells: T-REx-293 cells stably expressing hVDAC1-shRNA (T-REx-pS10)
- assay.overview: BRET2 assay of VDAC1 oligomerization induced by apoptosis inducers (Method A)
- Assay type: cell-based
- assay.setup: test compound 10 μM, 1 h pre-incubation, selenite 30 μM (3 h)
Measured BRET2, % of inhibition, Selenite values are reported for all entries that follow.
Report as a plain number; the unit % is understood.

// known answers, use as guide
molecule=Oc1ccc(Cc2ccc(Cl)cc2)c(O)c1 unit_spec=% numeric_result=67
molecule=Cc1ccc(NC(=O)Nc2nc3ccccc3s2)cc1NC(=O)Nc1nc2ccccc2s1 unit_spec=% numeric_result=43.2
molecule=CC(=O)N1C=Cc2c(c(C)c3c([nH]c4ccccc43)c2C)C1 unit_spec=% numeric_result=25.3
molecule=CC#CC#Cc1cccc(=O)o1 unit_spec=% numeric_result=0
molecule=CCOc1ccc(/C=C2\CCc3ccccc3C2=O)cc1 unit_spec=% numeric_result=50
molecule=CN1CCN(C(=O)Nc2ccc([N+](=O)[O-])cc2)CC1 unit_spec=% numeric_result=50
molecule=Nc1ccc(C(=O)Nc2cccc(N)c2)cc1 unit_spec=% numeric_result=41
molecule=C=CCNC(=O)c1ccc(OC)cc1 unit_spec=% numeric_result=37.1
molecule=O=C(O)c1ccc(O)c(O)c1 unit_spec=% numeric_result=41.5
molecule="COC(=O)C1(C)Cc2cc(OC(C)=O)c(OC(C)=O)cc2N1 (stereo not drawn)" unit_spec=% numeric_result=24

For the molecule O=c1c(-c2ccc(O)cc2)coc2cc(O)cc(O)c12 , what BRET2, % of inhibition, Selenite is on record?
0

Give its BRET2, % of inhibition, Selenite value. Item: CN(C)c1cccc(/C=C(\C#N)c2ccccc2)c1
0

Need BRET2, % of inhibition, Selenite, item CCOC(=O)Nc1ccc(C(=O)/C=C/c2ccccc2)cc1
33.3

Give its BRET2, % of inhibition, Selenite value. Item: CN1[C@@H]2CC[C@H]1CC(OC(c1ccccc1)c1ccccc1)C2.CS(=O)(=O)O (stereo partly drawn)
78.7

# BRET2, % of inhibition, Selenite lookup, item CCOC(=O)c1[nH]c(CO)c(C(=O)OCC)c1C
9.6

Suppose we examine the molecule O=P(O)(O)c1cc(-c2ccccc2)oc1-c1ccccc1 ; what BRET2, % of inhibition, Selenite value has been reported?
50.1

So what's the measured BRET2, % of inhibition, Selenite for this one? O=C(/C=C/c1ccccc1Cl)c1ccc(O)cc1
0

Look at this molecule and give its reported BRET2, % of inhibition, Selenite. O=C(Nc1ccc(C2=NCCN2)cc1)c1ccc(Cl)c(C(=O)Nc2ccc(C3=NCCN3)cc2)c1
65.7

I'd like to know its BRET2, % of inhibition, Selenite. The molecule in question is CCOC(=O)N1CCN(Cc2c(O)ccc3ccccc23)CC1
67.4

Given CC(C)NC(=O)c1ccc(C(C)C)cc1 , state its recorded BRET2, % of inhibition, Selenite.
77.4

Which BRET2, % of inhibition, Selenite reading was recorded for the molecule CC1=CC(=O)C(C(C)=Nc2ccccc2Cl)C(=O)O1 (stereo not drawn) ?
16.4

====

- experimental.system: rVDAC1-GFP2 / rVDAC1-Rluc in T-REx-293 cells (Rattus norvegicus)
- Construct: The rVDAC1 gene was cloned into BamHI and HindIII sites of the BRET2 plasmids (N2 variants); expressed in transfected cells; host or cells: T-REx-293 cells stably expressing hVDAC1-shRNA (T-REx-pS10)
- assay.overview: BRET2 assay of VDAC1 oligomerization induced by apoptosis inducers (Method A)
- Assay type: cell-based
- assay.setup: test compound 10 μM, 1 h pre-incubation, As2O3 60 μM (3 h)
class 1 means recorded BRET2, % of inhibition, As2O3 is 90% or above; class 0 means it is below 90%.

Example cases with answers are listed next.
molecule="O=C(O)c1ccc(O)c(O)c1 [NSC 16631]" label="class 0"
molecule="CCOC(=O)N1CCN(Cc2c(O)ccc3ccccc23)CC1 [NSC 12262]" label="class 0"
molecule="CC(C)OC(=O)Nc1ccc(-c2ccc(NC(=O)OC(C)C)cc2Cl)c(Cl)c1 [NSC 43678]" label="class 1"
molecule="Cc1ccc(-n2nnnc2-c2cccnc2)cc1 [NSC 23247]" label="class 1"
molecule="O=C(Oc1ccc(NC(=O)c2cc3c(cc2Br)OCO3)cc1)c1ccccc1 [NSC 268487]" label="class 0"

Would you say O=C(c1cccnc1)c1cc(-c2ccccn2)c(=O)n2ccccc12 [NSC 324623] shows BRET2, % of inhibition, As2O3 at minimum 90%?
class 0

Decide: is the reported value of BRET2, % of inhibition, As2O3 for Cc1ccc(NC(=O)Nc2nc3ccccc3s2)cc1NC(=O)Nc1nc2ccccc2s1 [NSC 319990] equal to or greater than 90%?
class 1

Assess whether reported BRET2, % of inhibition, As2O3 for O=C1CN2CCC1C/C2=C\c1ccnc2c(Cl)cccc12 (stereo not drawn) [NSC 132868] sits at 90% or higher.
class 0

Record Nc1nc(N)c(C=Nc2ccc(Br)cc2)c(Nc2ccc(Br)cc2)n1 [NSC 103520] ; criterion: BRET2, % of inhibition, As2O3 no lower than 90%. Met?
class 0

Does O=C(Nc1ccc(C2=NCCN2)cc1)c1ccc(Cl)c(C(=O)Nc2ccc(C3=NCCN3)cc2)c1 [NSC 67436] have a reported BRET2, % of inhibition, As2O3 of at least 90%?
class 0

====

- experimental.system: rVDAC1-GFP2 / rVDAC1-Rluc in T-REx-293 cells (Rattus norvegicus)
- Construct: The rVDAC1 gene was cloned into BamHI and HindIII sites of the BRET2 plasmids (N2 variants); expressed in transfected cells; host or cells: T-REx-293 cells stably expressing hVDAC1-shRNA (T-REx-pS10)
- assay.overview: BRET2 assay of VDAC1 oligomerization induced by apoptosis inducers (Method A)
- Type: cell-based
- assay.setup: test compound 10 μM, 1 h pre-incubation, STS 1 μM (3 h)
- Protocol: BRET2 screening may be carried out as described in the art ([…] et al., (2010) Oligomerization of the mitochondrial protein voltage-dependent anion channel is coupled to the induction of apoptosis. Mol Cell Biol 30, 5698-5709). […] The BRET2 signal represents the ratio of the GFP2 fluorescence, measured at its emission wavelength (510 nm), over the light intensity (luminescence) emitted at 395 nm. All measurements were performed using the Infinite 200 ELISA reader (Tecan). […]
recorded.endpoint: BRET2, % of inhibition, STS (%)
Give the value in % but do not write % after it.

Look at this molecule and give its reported BRET2, % of inhibition, STS. CN(C)c1cccc(/C=C(\C#N)c2ccccc2)c1
1.4

Could you share which BRET2, % of inhibition, STS value was measured for NC(=O)c1ccc(Oc2ccc(C(N)=O)cc2)cc1 ?
39.1

Can you look up the measured BRET2, % of inhibition, STS of CC(C)OC(=O)Nc1ccc(-c2ccc(NC(=O)OC(C)C)cc2Cl)c(Cl)c1 for me?
34.6

Fill in the blank: the reported BRET2, % of inhibition, STS of CC(=O)N1C=Cc2c(c(C)c3c([nH]c4ccccc43)c2C)C1 is ____.
0

Any idea what its BRET2, % of inhibition, STS is? The molecule is Cc1ccc([N+](=O)[O-])cc1NC(=O)Nc1ccc(S(N)(=O)=O)cc1
0

Item Nc1ccc(C(=O)Nc2cccc(N)c2)cc1 has what recorded BRET2, % of inhibition, STS?
39.7

Consider the molecule Nc1ccc(C(=O)Oc2ccc([N+](=O)[O-])cc2)cc1 and give its measured BRET2, % of inhibition, STS.
0

Look up BRET2, % of inhibition, STS for this molecule: Cc1ccc(-n2nnnc2-c2cccnc2)cc1
0
